What GI50 was measured for each of the following?
System: HT-29
Experiment Notes: NCI tumour cell line growth inhibition, 48 h
The source made the active and inactive calls. Rule as the data show it: active = GI50 up to about 1.1 µM and inactive = higher.

Lookup: Give recorded GI50 with HT-29 for the following compound: `C/C(=N\NC(=O)/C(C#N)=C\c1ccc(N(CCC#N)CCC#N)cc1)c1ccccc1`
Found: > 10 µM (inactive)

Lookup: Item COC1(C)CP(=O)(OC(C)C)CC(C)=C1Cl (stereo not drawn) with HT-29 - GI50?
Found: 12.3 µM (inactive)

Lookup: What value of GI50 on HT-29 does `CCOC(C[C@H](O[Si](C)(C)C(C)(C)C)[C@H]1COC(=S)S1)OCC` have?
Found: 14.5 µM (inactive)

Lookup: Notebook entry, HT-29 assay: GI50 of Cc1ccc(C2SCC(=O)N2c2ccc(-c3ccc(-n4c(-c5ccccc5)nc5ccccc5c4=O)cc3)cc2)cc1 (stereo not drawn) = ?
Found: 38.9 µM (inactive)

Lookup: Item: `CC(=O)N(C(C)=O)n1nc2c(n1)C(=O)c1ccccc1C2=O` Test system: HT-29 Read-out: GI50 Value: ?
Found: > 100 µM (inactive)

Lookup: Provide value of GI50 for this record tested with HT-29: `N#C/C(=C\c1ccccc1)c1nc(-c2cc3ccccc3oc2=O)cs1`
Found: > 100 µM (inactive)

Lookup: API: value(readout= GI50, system= HT-29, query= COC1(CC[C@H](C)COC2OC(CO)C(O)C(O)C2O)O[C@H]2C[C@H]3[C@@H]4CC=C5C[C@@H](OC6OC(CO)C(OC7OC(C)C(O)C(O)C7O)C(O)C6OC6OC(C)C(O)C(O)C6O)CC[C@]5(C)[C@H]4CC[C@]3(C)[C@H]2[C@@H]1C (stereo partly drawn) )
Found: 2.52 µM (inactive)

Lookup: Given the entry COC(=O)c1ccccc1C1CN=NC12Cc1cc(C)c(C)cc1C2=O (stereo not drawn) , what GI50 was observed with HT-29?
Found: 29.4 µM (inactive)

###

This document collects log10(GI50) values reported for HCT-15.
*1 amine or outer side, *2 acyl side, *3 side chain or, on linkers, in order; H or OH if unused. Where a SMILES comes first, the peptide text is derived from it. Bridges are numbered along the chain shown (N, C = ends). Roman numbers before positions name the chains, in order. [ ]: non-standard residue; d: D form. Actinocin(9to1) = Cc1c2oc3c(C)ccc(C(=O)[*:1])c3nc-2c(C(=O)[*:2])c(N)c1=O; NMeV = CN[CH](C(=O)O)C(C)C; Sar = CNCC(=O)O
The figures below represent log10 of GI50, where GI50 is stated in µM.

Lookup: Given `N#C/C(=C\c1c(Cl)cccc1Cl)c1ccccc1` , state its recorded log10(GI50).
Found: 0.62

Lookup: Can you look up the measured log10(GI50) of `COc1cc(/C=C2\CCC/C(=C\c3ccc(O)c(OC)c3)C2=O)ccc1O` for me?
Found: 0.37

Lookup: Bench note: what log10(GI50) did CC1(c2cccc3ccccc23)OC(=O)c2ccccc21 (stereo not drawn) show?
Found: 1.27

Lookup: Fill blank: measured log10(GI50) of the compound `CCOC(=O)c1[nH]cc(C)c1-c1ccc2c(-c3ccccc3)nc3ccccc3n12` is ____.
Found: 0.55

Lookup: Item under review: `Clc1ccc2c(NCCCCCCNc3ccnc4cc(Cl)ccc34)ccnc2c1` . Reported log10(GI50)?
Found: 0.46

Lookup: Recorded log10(GI50) of `O=C(/C=C/c1ccc(O)c(O)c1)OCCCOC(=O)/C=C/c1ccc(O)c(O)c1` , please.
Found: 1.15

Lookup: Tell me the measured log10(GI50) of CCC1(O)C(=O)OCc2c1cc1n(c2=O)Cc2cc3cc4c(cc3nc2-1)OCO4 (stereo not drawn) , please.
Found: -1.51

Lookup: I have this compound here, COc1ccc(CC2CCc3nc(N)nc(N)c3C2)cc1OC (stereo not drawn) , and I need its recorded log10(GI50).
Found: -0.98

Lookup: What does the data say about its log10(GI50)? Entry: `Cc1c2cc[n+](C)cc2c(C)c2c1[nH]c1ccc(Oc3ccccc3)cc12`
Found: 0.67

Lookup: Which measured log10(GI50) value corresponds to `COc1ccc([Se][Se]c2ccc(OC)cc2OC)c(OC)c1` ?
Found: 0.26

Lookup: Query: log10(GI50); subject: `CCCCCCCCCCCCCc1nnn[nH]1`
Found: 1.26

Lookup: log10(GI50) for Cc1c2oc3c(C)ccc(C(=O)NC4C(=O)NC(Cc5ccccc5)C(=O)N5CCCC5C(=O)N(C)CC(=O)N(C)C(C(C)C)C(=O)OC4C)c3nc-2c(C(=O)NC2C(=O)NC(Cc3ccccc3)C(=O)N3CCCC3C(=O)N(C)CC(=O)N(C)C(C(C)C)C(=O)OC2C)c(N)c1=O (stereo not drawn) (I: TFP[Sar][NMeV] / II: TFP[Sar][NMeV]; ester I:1-I:C, II:1-II:C; linker I:N-II:N via Actinocin(9to1); configuration not given here) ?
Found: -1.53
